Biological target: GPR6 (Homo sapiens)
Construct: expressed in transfected cells; host or cells: CHO cells
Sequence (P46095 whole entry): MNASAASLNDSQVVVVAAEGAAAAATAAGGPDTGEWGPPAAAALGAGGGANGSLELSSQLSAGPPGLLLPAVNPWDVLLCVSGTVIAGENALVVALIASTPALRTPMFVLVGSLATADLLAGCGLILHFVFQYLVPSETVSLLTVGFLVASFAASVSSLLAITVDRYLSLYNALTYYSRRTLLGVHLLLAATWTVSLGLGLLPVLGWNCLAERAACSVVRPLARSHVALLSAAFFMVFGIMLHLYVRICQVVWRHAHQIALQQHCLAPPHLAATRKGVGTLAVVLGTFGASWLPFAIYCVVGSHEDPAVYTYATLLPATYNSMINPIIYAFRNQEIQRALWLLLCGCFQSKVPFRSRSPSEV
Test: GPR6 antagonist functional cAMP assay (LANCE Ultra cAMP TR-FRET, CHO cells stably expressing GPR6)
Type: cell-based
Conditions: procedure of Example 24
pIC50: −log10 of the molar value.
readout: pIC50

Sample answers from the record:
[
  {
    "compound": "CC(=O)N1CCc2nc(N3CCC(COc4cc(F)ccc4F)C3)c(-c3cnn(C)c3)nc2C1 (stereo not shown)",
    "test-result": "4.52 to 6.00"
  },
  {
    "compound": "CC(=O)N1CCc2nc(N3CCc4c(cnn4-c4ccc(F)cc4F)C3)c(-c3cnn(C)c3)nc2C1",
    "test-result": "4.52 to 6.00"
  },
  {
    "compound": "CC(=O)N1CCc2nc(N3CCN(Cc4ccc(F)cc4F)CC3)c(-c3cnn(C)c3)nc2C1",
    "test-result": "6.00 to 7.00"
  },
  {
    "compound": "CC(C)(O)[C@@](C)(O)c1cc2nc(N3CCN(Cc4ccccc4F)CC3)c(-c3cnn(C(F)F)c3)nc2cn1 (single isomer, unassigned)",
    "test-result": "6.00 to 7.00"
  },
  {
    "compound": "CC(C)(O)C(O)c1cc2nc(-c3cnn(C(F)F)c3)c(N3CCC(=Cc4ccc(F)cc4F)CC3)nc2cn1 (single isomer, unassigned) [Compound 766]",
    "test-result": "6.00 to 7.00"
  },
  {
    "compound": "COC[C@@](C)(O)c1cc2nc(-c3cnn(C)c3)c(N3CCC(Oc4ccc(F)cc4F)CC3)nc2cn1 (single isomer, unassigned)",
    "test-result": "6.00 to 7.00"
  }
]

### Prompt Can you share its pIC50? I mean this compound: Cn1cc(-c2nc3cnc(C4CC4CO)cc3nc2N2CCC(Oc3ccc(F)cc3F)CC2)cn1 (stereo not shown)
### Response 4.52 to 6.00

### Prompt What do you have for OCCOc1cc2nc(-c3cnn(CF)c3)c(N3CCN(Cc4ccc(F)cc4F)CC3)nc2cn1 ?
### Response 6.00 to 7.00

### Prompt And for CCn1cc(-c2nc3c(nc2N2CCC(Oc4ccc(F)cc4F)CC2)CCN(C(=O)N(C)C)C3)cn1 ?
### Response > 7.00

### Prompt CC(C)(O)[C@](C)(O)c1cc2nc(N3CCN(Cc4ccc(F)cc4F)CC3)c(-c3cnn(C4CC4)c3)nc2cn1 (single isomer, unassigned) ?
### Response 6.00 to 7.00

### Prompt # iterate: CC(C)(O)[C@@](C)(O)c1cc2nc(N3CCN(Cc4ccccc4F)CC3)c(-c3cnn(C4CC4)c3)nc2cn1 (single isomer, unassigned)
### Response 6.00 to 7.00

### Prompt Queued: CC(C)(O)[C@H](O)c1cc2nc(-c3cn[nH]c3)c(N3CCN(Cc4ccc(F)cc4F)CC3)nc2cn1 (single isomer, unassigned)
### Response 4.52 to 6.00

### Prompt Lookup CC(C)(O)C(=O)c1cc2nc(N3CCN(Cc4ccccc4F)CC3)c(-c3cnn(C(F)F)c3)nc2cn1
### Response 6.00 to 7.00

----------
Molecular target: GPR3 (Homo sapiens, UniProt P46089)
Construct: expressed in transfected cells; host or cells: CHO cells
Sequence (P46089 whole entry, species assumed): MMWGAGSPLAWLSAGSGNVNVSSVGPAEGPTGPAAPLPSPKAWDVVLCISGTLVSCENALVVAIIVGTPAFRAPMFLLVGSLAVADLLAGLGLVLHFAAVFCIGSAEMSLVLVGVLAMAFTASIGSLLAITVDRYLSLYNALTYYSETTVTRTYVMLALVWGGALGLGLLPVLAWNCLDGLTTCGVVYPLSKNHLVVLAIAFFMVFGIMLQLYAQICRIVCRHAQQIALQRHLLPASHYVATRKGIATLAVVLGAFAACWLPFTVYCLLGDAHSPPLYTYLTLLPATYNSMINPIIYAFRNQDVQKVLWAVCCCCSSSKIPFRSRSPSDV
Assay: GPR3 antagonist functional cAMP assay (LANCE Ultra cAMP TR-FRET, CHO cells stably expressing GPR3)
Assay type: cell-based
Details: CHO cells stably expressing GPR3, cAMP assay (Example 24)
Method: Example 56. GPR6 and GPR3 Antagonist Functional cAMP Assay CHO cells stably expressing GPR6 or GPR3 receptors were dissociated from cell culture flasks and incubated for 2 h at 37° C. in a 10 cm dish in a humidified incubator. […] To measure cAMP levels, LANCE® Ultra cAMP assay (Perkin Elmer), a homogeneous time-resolved fluorescence resonance energy transfer (TR-FRET) immunoassay was used following manufacturer's recommendations. […] FRET values were reported as readings obtained at 665 nm. […]
Examples of compounds with documented IC50 follow.

Answered examples (3):
[
  {
    "compound": "CC(=O)N1CCc2nc(N3CCC(Oc4ccc(F)cc4F)CC3)c(-c3cn[nH]c3F)nc2C1",
    "assayed-target": "GPR3 (Homo sapiens, UniProt P46089)",
    "IC50": "1 to 30 µM"
  },
  {
    "compound": "O=C(C1CCCN1)N1CCc2nc(N3CCC(Oc4ccc(F)cc4F)CC3)c(-c3cn[nH]c3)nc2C1 (stereo not shown)",
    "assayed-target": "GPR3 (Homo sapiens, UniProt P46089)",
    "IC50": "1 to 30 µM"
  },
  {
    "compound": "COCC1CN(c2nc3ccncc3nc2-c2cn[nH]c2)CCN1Cc1ccc(F)cc1F (single isomer, unassigned)",
    "assayed-target": "GPR3 (Homo sapiens, UniProt P46089)",
    "IC50": "1 to 30 µM"
  }
]

# input for lookup
### Prompt API: value(readout= IC50, system= GPR3 (Homo sapiens, UniProt P46089), query= OCCN1CCc2nc(N3CCC(Oc4ccc(F)cc4F)CC3)c(-c3cnn(C4CCCCO4)c3)nc2C1 (stereo not shown) )
### Response 1 to 30 µM
